Molecular target: SARS-CoV-1 spike on pseudovirus (SARS-CoV-1, UniProt P59594 14-1255)
Assay: cell-based or functional assay
Parameter measured: PSV neutralization IC50

[
  {
    "Binder": "L12.bP12H09 (antibody, V domains shown, human IgG1) VH: QVQLVQSGAEVKKPGASVKVSCKASGYIFSGYYTHWVRQAPGQGLEWMGWISPDSGGTNYAQKFQGRVTMTRDTSITTAYVELSGLRSDDTAVYYCARGPRYSGTYFDYWGQGTLVTVSS VL: QSALTQPASVSGSPGQSITISCTGTSSDVGGYNHVSWYQQHPGKAPKLMIYDVSNRPSGVSNRFSGSKSGNTASLTISGLQAEDEADYYCSSYTSSSAQLFGGGTKLTVL",
    "Parameter measured": "PSV neutralization IC50",
    "Experimental result": "> 50 µg/mL"
  }
]

Short answer for L12.cP08A09 (antibody, V domains shown, human IgG1) VH: QVQLVQSGAEVKKPGASVKVSCKASGYIYSGYYMHWVRQAPGQGLEWMGWISPDSGGTNYAQRFQGRVTMTRDTSTTTAYMELSRLRSDDTAVYYCARGPRYSGTYFDYWGQGTLVTVSS VL: QSALTQPASVSGSPGQSITISCTGTSSDVGGYNYVSWYQQHPDKAPKLMIYDVSNRPSGVSNRFSGSKSGNTASLTISGLQAEDEADYYCSSYTSGSTQVFGGGTKLTVL : PSV neutralization IC50 was > 50 µg/mL

binder L12.cP09D03 (antibody, V domains shown, human IgG1) VH: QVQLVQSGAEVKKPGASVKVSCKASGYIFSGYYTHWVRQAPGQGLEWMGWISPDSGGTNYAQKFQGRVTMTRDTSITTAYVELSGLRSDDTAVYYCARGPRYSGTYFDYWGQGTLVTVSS VL: QSVLTQPASVSGSPGQSITISCTGTSSDVGGYNYVSWYQQHPGKVPKLMIYDVSNRPSGVSNRFSGSKSGNTASLTISGLQAEDEADYYCSSYTSSSAQLFGGGTKLTVL , PSV neutralization IC50 observed: > 50 µg/mL
